Target: T1, 4H607-bH
T1 chain: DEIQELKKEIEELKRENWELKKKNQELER
Experiment: two-hybrid library CCNG1;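 also: natural log of median RNA to DNA barcode read ratio; higher means stronger binding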
Threshold-based label: interaction score under -0.2 gives true (1), interaction score not under -0.2 gives false (0).

binder="DKNQELEKKIEELERENWELKKEIQELKR [4H3354-bH]" assigned_label="true (1)"
binder="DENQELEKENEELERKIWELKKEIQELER [4H1193-bH]" assigned_label="true (1)"
binder="DKNQELEKEIEELKRENWELKKEIQELKR [4H3162-bH]" assigned_label="true (1)"
binder="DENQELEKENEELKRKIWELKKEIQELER [4H1257-bH]" assigned_label="true (1)"
binder="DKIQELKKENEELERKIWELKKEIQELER [4H2729-bH]" assigned_label="true (1)"
binder="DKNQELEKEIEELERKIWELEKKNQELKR [4H3112-bH]" assigned_label="false (0)"
binder="DENQELEKKIEELKRENWELKKEIQELER [4H1369-bH]" assigned_label="false (0)"
